biological target: SARS2 protease (Severe acute respiratory syndrome coronavirus 2); construct: SARS2 protease was added to a final concentration of 30 nM; experiment: SARS-CoV-2 protease inhibition assay (SARS2 FRET protease assay); assay type: biochemical; conditions: IC50 (μM), SARS2 protease 30 nM, peptide substrate 1.3 μM, 120 minutes at 37° C., compounds 20 μM to 0.075 nM
Under this convention, rule met denotes IC50 strictly below 0.002 µM and rule not met denotes IC50 at or above 0.002 µM.

Previously resolved entries follow.
molecule="CCCC[C@H](NC(=O)OC(c1cccc(F)c1)C1(c2cccc(Cl)c2)CC1)C(=O)N[C@@H](C[C@@H]1CCNC1=O)C(=O)C(=O)NC1CC1 (stereo partly drawn) [Compound A105]" system_name="SARS2 protease (Severe acute respiratory syndrome coronavirus 2)" assigned_label="rule not met"
molecule="CCCCCOC(=O)N[C@@H](CC(C)C)C(=O)N[C@H](C=O)C[C@@H]1CCNC1=O [Compound A13]" system_name="SARS2 protease (Severe acute respiratory syndrome coronavirus 2)" assigned_label="rule not met"
molecule="CCCC[C@H](NC(=O)OC(c1ccccc1)C(F)(F)c1cccc(F)c1)C(=O)N[C@H](C=O)C[C@@H]1CCNC1=O (stereo partly drawn) [Compound A77]" system_name="SARS2 protease (Severe acute respiratory syndrome coronavirus 2)" assigned_label="rule not met"
molecule="CCCC[C@H](NC(=O)O[C@H](c1ccccc1)C(F)(F)c1cccc(Cl)c1)C(=O)N[C@@H](C[C@@H]1CCNC1=O)C(=O)C(N)=O [Compound A248]" system_name="SARS2 protease (Severe acute respiratory syndrome coronavirus 2)" assigned_label="rule met"

Read the next record carefully.
Decide: IC50 of CCCCCOC(=O)N[C@@H](CC(C)C)C(=O)N[C@@H](C[C@@H]1CCNC1=O)C(=O)C(=O)NC1CCCCC1 [Compound A24] strictly below 0.002 µM?
rule not met

---

Reported IC50 by item:
target: SARS2 protease (Severe acute respiratory syndrome coronavirus 2); construct: SARS2 protease was added to a final concentration of 30 nM; test: SARS-CoV-2 protease inhibition assay (SARS2 FRET protease assay); format: biochemical; conditions: IC50 (μM), SARS2 protease 30 nM, peptide substrate 1.3 μM, 120 minutes at 37° C., compounds 20 μM to 0.075 nM
Response body: numeric value in µM, unit text excluded.

// known answers, use as guide
molecule=CCCCC[C@H](NC(=O)O[C@@H](c1ccccc1)C(F)(F)c1cccc(Cl)c1)C(=O)N[C@@H](C[C@@H]1CCNC1=O)C(=O)C(=O)NC1CC1 system_name="SARS2 protease (Severe acute respiratory syndrome coronavirus 2)" reading=0.3
molecule=CC[C@@H](C)C[C@H](NC(=O)O[C@H](c1ccccc1)C(F)(F)c1cccc(Cl)c1)C(=O)N[C@@H](C[C@@H]1CCNC1=O)C(=O)C(=O)NC1CC1 system_name="SARS2 protease (Severe acute respiratory syndrome coronavirus 2)" reading=0.181
molecule="CCCC[C@H](NC(=O)OC(c1ccc(F)cc1)C(F)(F)c1cccc(Cl)c1)C(=O)N[C@H](C=O)C[C@@H]1CCNC1=O (stereo partly drawn)" system_name="SARS2 protease (Severe acute respiratory syndrome coronavirus 2)" reading=0.008
molecule="CC(C)C[C@H](NC(=O)OC(c1ccccc1)C(F)(F)c1cccc(C(C)C)c1)C(=O)N[C@@H](C[C@@H]1CCNC1=O)C(=O)C(=O)NC1CC1 (stereo partly drawn)" system_name="SARS2 protease (Severe acute respiratory syndrome coronavirus 2)" reading=0.001
molecule="CCCC[C@H](NC(=O)OC(c1cccc(F)c1)C(F)(F)c1cccc(F)c1)C(=O)N[C@@H](C[C@@H]1CCNC1=O)C(=O)C(=O)NC1CC1 (stereo partly drawn)" system_name="SARS2 protease (Severe acute respiratory syndrome coronavirus 2)" reading=0.14

Recall and state the measured IC50 for CCCC[C@H](NC(=O)OC(c1cccc(F)c1)C1(c2cccc(F)c2)CC1)C(=O)N[C@@H](C[C@@H]1CCNC1=O)C(=O)C(=O)NC1CC1 (stereo partly drawn) .
0.309
